# Tested on: NCI-H460
# EXPERIMENTAL_DETAILS: NCI tumour cell line growth inhibition, 48 h
Calls of active or inactive are those of the source. Rule as the data show it: active = GI50 up to about 1.1 µM and inactive = higher.
MEASURED_QUANTITY: GI50

# count of solved cases: 3
MOLECULE: O=C(CSc1nc2ccc([N+](=O)[O-])cc2s1)c1ccc2ccccc2c1
REPORTED_RESULT: > 100 µM (inactive)
--
MOLECULE: CCCCC(=O)Nc1ccc2cc(C(=O)OC)c(ON3C(=O)c4ccccc4C3=O)nc2n1
REPORTED_RESULT: 15.3 µM (inactive)
--
MOLECULE: O=C(Oc1c(Br)cc(Br)cc1C(=O)Oc1ccccc1)C(=O)Oc1c(Br)cc(Br)cc1C(=O)Oc1ccccc1
REPORTED_RESULT: > 100 µM (inactive)

Batch request: GI50 per item, same order as input.
1. Cc1cc(S(=O)(=O)N=C2N(Cc3ccccc3)CCN2Cc2ccccc2)c(S)cc1Cl
2. N#CC1C=Cc2ccccc2N1C(=O)Oc1ccccc1 (stereo not given)
3. Nc1nc(Cl)c(N)c(NCC2(CO)CCC(CCc3ccccc3)C2)n1 (stereo not given)
4. O=C(N[C@H]1CC2(C=C(I)C(=O)C(I)=C2)OC1=O)OCc1ccccc1
5. CCOc1ccccc1NC(=O)C1=C(C)NC(C)=C(C(=O)Nc2ccccc2OCC)C1c1ccc2c(c1)OCO2
6. CC(=O)C(CN(C(C)C)C(C)C)C(c1ccccc1)c1c(O)c2ccccc2oc1=O (stereo not given)

Result ::
1. 56.1 µM (inactive)
2. 41.4 µM (inactive)
3. 12.6 µM (inactive)
4. 21.1 µM (inactive)
5. 29.1 µM (inactive)
6. > 100 µM (inactive)

Query :: Identify measured GI50 corresponding to Brc1cc2c(cc1C1SCCS1)OCO2
Result :: > 100 µM (inactive)

---

# System: MDA-N
# EXPERIMENTAL_DETAILS: NCI tumour cell line growth inhibition, 48 h
Active and inactive are the calls of the source. Cut-off read from the data, not from the text of the source: active = GI50 up to about 1.1 µM and inactive = higher.
Reply using exactly one outcome from active, inactive

As a guide, the following entries are already answered.
COMPOUND: NCCNCCCCCCNC(=O)c1cccc2cc3ccccc3nc12
CAT: inactive
--
COMPOUND: COc1ccc2c(c1)C(N)=C(c1ccccc1)C2=O
CAT: inactive
--
COMPOUND: CCOC(=O)c1c(Br)c(-c2ccc([N+](=O)[O-])cc2)c(Br)n1C
CAT: inactive
--
COMPOUND: COC(=O)C1(CCCCCBr)CCCCCCCCCCC1=O (configuration not stated)
CAT: inactive
--
COMPOUND: CCOC(=O)[C@H](O)[C@@H](O)C(=O)NCc1ccc(C(=O)c2ccccc2)cc1
CAT: inactive

Query :: Please state the recorded outcome for this compound: COc1cc(C(=O)OC2CC34CCNC35CC(OC5(OC)C2O)c2cc3c(cc24)OCO3)ccc1O (configuration not stated)
Result :: inactive

Query :: Which outcome was entered for the compound Br[Se]c1ccccn1 in this test?
Result :: inactive

Query :: I'd appreciate the recorded outcome for CCNCCCNc1c2ccccc2nc2ccccc12 from this test.
Result :: active

Query :: Record lookup: outcome of this test for CCOC(=O)c1csc(-c2nc(CCNC(=O)c3ccccc3)sc2Cl)n1 ?
Result :: inactive

Query :: Record request — test call for CCCC(=O)Nc1cc(C(=O)N2C[C@H]3C[C@@]34C2=CC(=O)c2[nH]cc(C)c24)n(COC)c1
Result :: active

Query :: Hello, I am checking results. What call was entered for COc1cc(C2C3=C(COC3=O)OC(C)(C)Oc3cc4c(cc32)OCO4)cc(OC)c1OC (configuration not stated) ?
Result :: active

Query :: Assay result, entry NCc1nnn(Cc2ccccc2)c1N — outcome?
Result :: inactive

---

# Tested on: DLD-1
# EXPERIMENTAL_DETAILS: NCI tumour cell line growth inhibition, 48 h
The source made the active and inactive calls. Cut-off read from the data, not from the text of the source: active = GI50 up to about 1.1 µM and inactive = higher.
Record form. Attribute: GI50. Fill in for each entry.

// known answers, use as guide
COMPOUND: Cc1ccc(/C=C/C(=O)c2ccc([N+](=O)[O-])cc2)cc1
GI50: 99.8 µM (inactive)
--
COMPOUND: COC(=O)[C@]1(C)CCCC2(C)C1CC[C@H]1C=C(C)[C@H]3CCC12C3 (stereo not given in full)
GI50: > 100 µM (inactive)

Give GI50 for each listed item.
1. CCc1cccc(=O)c([O-])c1.CCc1cccc(=O)c([O-])c1.[Bi+3].[Cl-]
2. CCCCN1C=CN2c3nc4cc(C)c(C)cc4n3C(C(=O)OC)=C(C(=O)OC)C12 (stereo not given)
3. C/C=C1/C(=Cc2[nH]c(C=c3[nH]/c(=C/C4=NC(=O)C(CC)=C4C)c(C)c3CCC(=O)O)c(CCC(=O)O)c2C)NC(=O)C1C (stereo not given)
4. CCOC(=O)C1=C(C)NC(=S)NC1c1ccccc1 (stereo not given)
5. CC1(C)C=C(N2CCN(C3=CC(C)(C)NC(C)(C)C3)CC2)CC(C)(C)N1

Result ::
1. 2.91 µM (inactive)
2. > 100 µM (inactive)
3. 2.58 µM (inactive)
4. > 57.9 µM (inactive)
5. > 100 µM (inactive)

Quick batch: GI50 for everything below.
1. Nn1c(=O)n(Cc2ccccc2)n(-c2ccccc2)c1=O
2. CCOc1ccccc1NC(=O)CC1SC(Nc2ccc([N+](=O)[O-])cc2)=NC1=O (stereo not given)
3. Brc1cc2c(cc1C1SCCS1)OCO2

Result ::
["> 100 µM (inactive)", "22.9 µM (inactive)", "> 100 µM (inactive)"]

---

# Tested on: OVCAR-5
# EXPERIMENTAL_DETAILS: NCI tumour cell line growth inhibition, 48 h
Active and inactive are the calls of the source. No stated cut-off is given here; in the data, active = GI50 up to about 1.1 µM and inactive = higher.
MEASURED_QUANTITY: GI50

COMPOUND: COC(=N)c1ncn(Cc2ccccc2)c1N
REPORTED_RESULT: > 100 µM (inactive)

COMPOUND: O=C(Nc1ccccc1C(=O)NCc1ccccc1)/C(=C/c1ccccc1)NC(=O)c1ccccc1
REPORTED_RESULT: > 100 µM (inactive)

COMPOUND: COc1cc(C2c3cc4c(cc3OC(NCCO)C2C)OCO4)cc(OC)c1OC (stereo not given)
REPORTED_RESULT: 7.48 µM (inactive)

Give GI50 for each listed item.
1. CCOC(=O)COc1ccccc1/C=C1\CCC(CN(C)C)C1=O (stereo not given)
2. Cc1cccc2c1c1ccc3c(c1n2C)C(=O)C=CC3=O
3. C1=C2/CC[C@H](Sc3ccccc3)[C@H]2C2(CCCCC/1)OCCO2
4. CC(=O)OCC1OC(n2c(-c3ccccc3)c(/N=N/c3ccccc3)c(C)c(C#N)c2=S)C(OC(C)=O)C(OC(C)=O)C1OC(C)=O (stereo not given)
5. CCCCCCC(=O)OC[n+]1ccc(-c2c(COC(=O)NC(C)C)c(COC(=O)NC(C)C)c3n2CCC3)cc1
6. CCCCN1C=CN2c3nc4cc(C)c(C)cc4n3C(C(=O)OC)=C(C(=O)OC)C12 (stereo not given)
7. CC1(CO)C(O)CCC2(C)C1CCC1CC3CC12CCC3(O)CO (stereo not given)

Result ::
["17.9 µM (inactive)", "15.9 µM (inactive)", "29.5 µM (inactive)", "> 100 µM (inactive)", "> 100 µM (inactive)", "> 100 µM (inactive)", "> 36.9 µM (inactive)"]

---

# Tested on: SF-268
# EXPERIMENTAL_DETAILS: NCI tumour cell line growth inhibition, 48 h
Calls of active or inactive are those of the source. Rule as the data show it: active = GI50 up to about 1.1 µM and inactive = higher.
MEASURED_QUANTITY: GI50

These recorded examples may help you get a feel for the data.
COMPOUND: O=C1OC(c2ccccc2)=N/C1=C\c1ccc(F)cc1
GI50: 66.8 µM (inactive)
--
COMPOUND: CCOC(=O)C1=C(c2ccccc2)C12N(Cc1ccccc1)C(=O)C2(c1ccccc1)c1ccccc1 (stereo not given)
GI50: > 100 µM (inactive)
--
COMPOUND: Cc1ccc2nc(N/N=C/c3ccc(C)s3)cc(C)c2c1
GI50: 11.6 µM (inactive)

// each compound listed below needs its GI50
1. COC(=O)C1=C(C(=O)OC)SC(=C(/N=N/c2ccccc2)c2ccccc2)S1
2. COc1ccc(-c2nc3ccccc3c(=S)n2OC(C)=O)cc1

Result ::
> 100 µM (inactive)
2.99 µM (inactive)

Lab note: each compound below needs its GI50 filled in.
1. NCCC(=O)N[C@H](Cc1cc(O)c(O)c(SCC(NC(=O)CC[C@H](N)C(=O)O)C(=O)NCC(=O)O)c1)C(=O)O (stereo not given in full)
2. O=CC(=C(I)I)c1ccccc1

Result ::
> 50 µM (inactive)
2.25 µM (inactive)

Below is a list of compounds. For each, state its recorded GI50.
1. COc1c(O)cc2ccnc3c2c1N(C)C=C3
2. CCOC(=O)c1c(N2CCOCC2)[nH]c(=O)c(C(c2c(Cl)cccc2Cl)c2c(O)c(C(=O)OCC)c(N3CCOCC3)[nH]c2=O)c1O
3. CC(=O)CC1(CBr)Nc2ccc([N+](=O)[O-])cc2NC1=O (stereo not given)

Result ::
1. > 100 µM (inactive)
2. 8.22 µM (inactive)
3. > 100 µM (inactive)
